Below, each entry is listed alongside its reported cell viability.
# System: HDQP1
# Test Description: cell viability (CellTiter-Glo luminescence) relative to DMSO (fraction of DMSO control); higher = higher signal (more live cells for CellTiter-Glo)
# Test Settings: 0.1 µM; 72 h

{"Compound": "C=CCCn1cc(-c2cc(C(=O)N3CCOCC3)cc3c2ncn3C)c2cc[nH]c2c1=O", "cell viability": 1.03}
{"Compound": "CC(C)(C)c1ccc(C(=O)Nc2cc(-c3ccccc3)n[nH]2)cc1", "cell viability": 1}
{"Compound": "CC(C)(C)c1cc(NC(=O)Nc2ccc(-c3cn4c(n3)sc3cc(OCCN5CCOCC5)ccc34)cc2)no1", "cell viability": 1.01}
{"Compound": "Cc1cc(-c2cc(NC(=O)c3ccc(C(C)(C)C)cc3)[nH]n2)ccn1", "cell viability": 0.99}
{"Compound": "Cn1cc(-c2cc(NC(=O)c3ccc(C(C)(C)C)cc3)n[nH]2)ccc1=O", "cell viability": 0.989}

---

Below, each entry is listed alongside its reported cell viability.
# Tested on: MOLM13
# Test Description: cell viability (CellTiter-Glo luminescence) relative to DMSO (fraction of DMSO control); higher = higher signal (more live cells for CellTiter-Glo)
# Test Settings: 10 µM; 72 h

{"Compound": "CC(C)(C)c1cc(NC(=O)Nc2ccc(-c3cn4c(n3)sc3cc(OCCN5CCOCC5)ccc34)cc2)no1", "cell viability": 0.00066}
{"Compound": "CC(C)(C)c1ccc(C(=O)Nc2cc(-c3ccccc3)n[nH]2)cc1", "cell viability": 0.00157}
{"Compound": "Cc1cc(-c2cc(NC(=O)c3ccc(C(C)(C)C)cc3)[nH]n2)ccn1", "cell viability": 0.0136}
{"Compound": "Cn1cc(-c2cc(NC(=O)c3ccc(C(C)(C)C)cc3)n[nH]2)ccc1=O", "cell viability": 0.00744}
{"Compound": "C=CCCn1cc(-c2cc(C(=O)N3CCOCC3)cc3c2ncn3C)c2cc[nH]c2c1=O", "cell viability": 0.95}

---

# Test system: MOLM13
# Test Description: cell viability (CellTiter-Glo luminescence) relative to DMSO (fraction of DMSO control); higher = higher signal (more live cells for CellTiter-Glo)
# Test Settings: 0.1 µM; 72 h

{"Compound": "CC(C)(C)c1ccc(C(=O)Nc2cc(-c3ccccc3)n[nH]2)cc1", "cell viability": 0.388}
{"Compound": "C=CCCn1cc(-c2cc(C(=O)N3CCOCC3)cc3c2ncn3C)c2cc[nH]c2c1=O", "cell viability": 0.989}
{"Compound": "CC(C)(C)c1cc(NC(=O)Nc2ccc(-c3cn4c(n3)sc3cc(OCCN5CCOCC5)ccc34)cc2)no1", "cell viability": 0.00261}
{"Compound": "Cc1cc(-c2cc(NC(=O)c3ccc(C(C)(C)C)cc3)[nH]n2)ccn1", "cell viability": 0.755}
{"Compound": "Cn1cc(-c2cc(NC(=O)c3ccc(C(C)(C)C)cc3)n[nH]2)ccc1=O", "cell viability": 0.912}

---

Below, each entry is listed alongside its reported cell viability.
# Test system: DU4475
# Test Description: cell viability (CellTiter-Glo luminescence) relative to DMSO (fraction of DMSO control); higher = higher signal (more live cells for CellTiter-Glo)
# Test Settings: 10 µM; 72 h
Quantity Measured: cell viability

{"Compound": "Cc1cc(-c2cc(NC(=O)c3ccc(C(C)(C)C)cc3)[nH]n2)ccn1", "Quantity Measured": "cell viability", "Reported Measurement": 0.435}
{"Compound": "CC(C)(C)c1cc(NC(=O)Nc2ccc(-c3cn4c(n3)sc3cc(OCCN5CCOCC5)ccc34)cc2)no1", "Quantity Measured": "cell viability", "Reported Measurement": 0.317}
{"Compound": "C=CCCn1cc(-c2cc(C(=O)N3CCOCC3)cc3c2ncn3C)c2cc[nH]c2c1=O", "Quantity Measured": "cell viability", "Reported Measurement": 1.03}
{"Compound": "Cn1cc(-c2cc(NC(=O)c3ccc(C(C)(C)C)cc3)n[nH]2)ccc1=O", "Quantity Measured": "cell viability", "Reported Measurement": 0.572}
{"Compound": "CC(C)(C)c1ccc(C(=O)Nc2cc(-c3ccccc3)n[nH]2)cc1", "Quantity Measured": "cell viability", "Reported Measurement": 0.028}

---

# Tested on: DU4475
# Test Description: cell viability (CellTiter-Glo luminescence) relative to DMSO (fraction of DMSO control); higher = higher signal (more live cells for CellTiter-Glo)
# Test Settings: 30 µM; 72 h
Lab note: anything with cell viability below 0.02 is marked condition met; values at 0.02 or higher are marked condition not met.

{"Compound": "CC(C)(C)c1cc(NC(=O)Nc2ccc(-c3cn4c(n3)sc3cc(OCCN5CCOCC5)ccc34)cc2)no1", "Answer Label": "condition not met"}
{"Compound": "Cc1cc(-c2cc(NC(=O)c3ccc(C(C)(C)C)cc3)[nH]n2)ccn1", "Answer Label": "condition met"}
{"Compound": "Cn1cc(-c2cc(NC(=O)c3ccc(C(C)(C)C)cc3)n[nH]2)ccc1=O", "Answer Label": "condition met"}
{"Compound": "CC(C)(C)c1ccc(C(=O)Nc2cc(-c3ccccc3)n[nH]2)cc1", "Answer Label": "condition met"}
{"Compound": "C=CCCn1cc(-c2cc(C(=O)N3CCOCC3)cc3c2ncn3C)c2cc[nH]c2c1=O", "Answer Label": "condition not met"}

---

# Tested on: MOLM13
# Test Description: cell viability (CellTiter-Glo luminescence) relative to DMSO (fraction of DMSO control); higher = higher signal (more live cells for CellTiter-Glo)
# Test Settings: 0.01 µM; 72 h
Quantity Measured: cell viability

{"Compound": "Cc1cc(-c2cc(NC(=O)c3ccc(C(C)(C)C)cc3)[nH]n2)ccn1", "Reported Measurement": 0.959}
{"Compound": "CC(C)(C)c1ccc(C(=O)Nc2cc(-c3ccccc3)n[nH]2)cc1", "Reported Measurement": 0.858}
{"Compound": "C=CCCn1cc(-c2cc(C(=O)N3CCOCC3)cc3c2ncn3C)c2cc[nH]c2c1=O", "Reported Measurement": 1.01}
{"Compound": "Cn1cc(-c2cc(NC(=O)c3ccc(C(C)(C)C)cc3)n[nH]2)ccc1=O", "Reported Measurement": 0.988}
{"Compound": "CC(C)(C)c1cc(NC(=O)Nc2ccc(-c3cn4c(n3)sc3cc(OCCN5CCOCC5)ccc34)cc2)no1", "Reported Measurement": 0.00342}

---

# System: IGROV1
# Test Description: cell viability (CellTiter-Glo luminescence) relative to DMSO (fraction of DMSO control); higher = higher signal (more live cells for CellTiter-Glo)
# Test Settings: 3 µM; 72 h
Below, each entry is listed alongside its reported cell viability.

{"Compound": "C=CCCn1cc(-c2cc(C(=O)N3CCOCC3)cc3c2ncn3C)c2cc[nH]c2c1=O", "Target Entity": "IGROV1", "cell viability": 0.95}
{"Compound": "CC(C)(C)c1cc(NC(=O)Nc2ccc(-c3cn4c(n3)sc3cc(OCCN5CCOCC5)ccc34)cc2)no1", "Target Entity": "IGROV1", "cell viability": 0.468}
{"Compound": "Cc1cc(-c2cc(NC(=O)c3ccc(C(C)(C)C)cc3)[nH]n2)ccn1", "Target Entity": "IGROV1", "cell viability": 0.811}
{"Compound": "CC(C)(C)c1ccc(C(=O)Nc2cc(-c3ccccc3)n[nH]2)cc1", "Target Entity": "IGROV1", "cell viability": 0.467}
{"Compound": "Cn1cc(-c2cc(NC(=O)c3ccc(C(C)(C)C)cc3)n[nH]2)ccc1=O", "Target Entity": "IGROV1", "cell viability": 0.783}

---

# System: IGROV1
# Test Description: cell viability (CellTiter-Glo luminescence) relative to DMSO (fraction of DMSO control); higher = higher signal (more live cells for CellTiter-Glo)
# Test Settings: 1 µM; 72 h
Quantity Measured: cell viability

{"Compound": "Cc1cc(-c2cc(NC(=O)c3ccc(C(C)(C)C)cc3)[nH]n2)ccn1 [3i-1246]", "Reported Measurement": 0.864}
{"Compound": "CC(C)(C)c1ccc(C(=O)Nc2cc(-c3ccccc3)n[nH]2)cc1 [3i-1247]", "Reported Measurement": 0.739}
{"Compound": "C=CCCn1cc(-c2cc(C(=O)N3CCOCC3)cc3c2ncn3C)c2cc[nH]c2c1=O [GNE-371]", "Reported Measurement": 0.975}
{"Compound": "Cn1cc(-c2cc(NC(=O)c3ccc(C(C)(C)C)cc3)n[nH]2)ccc1=O [3i-1248]", "Reported Measurement": 0.861}
{"Compound": "CC(C)(C)c1cc(NC(=O)Nc2ccc(-c3cn4c(n3)sc3cc(OCCN5CCOCC5)ccc34)cc2)no1 [quizartinib]", "Reported Measurement": 0.633}
